EC50 hGlucagon-R by entry:
- measurement_target: human glucagon receptor (human, UniProt P47871 26-477)
- Sequence (P47871 26-477): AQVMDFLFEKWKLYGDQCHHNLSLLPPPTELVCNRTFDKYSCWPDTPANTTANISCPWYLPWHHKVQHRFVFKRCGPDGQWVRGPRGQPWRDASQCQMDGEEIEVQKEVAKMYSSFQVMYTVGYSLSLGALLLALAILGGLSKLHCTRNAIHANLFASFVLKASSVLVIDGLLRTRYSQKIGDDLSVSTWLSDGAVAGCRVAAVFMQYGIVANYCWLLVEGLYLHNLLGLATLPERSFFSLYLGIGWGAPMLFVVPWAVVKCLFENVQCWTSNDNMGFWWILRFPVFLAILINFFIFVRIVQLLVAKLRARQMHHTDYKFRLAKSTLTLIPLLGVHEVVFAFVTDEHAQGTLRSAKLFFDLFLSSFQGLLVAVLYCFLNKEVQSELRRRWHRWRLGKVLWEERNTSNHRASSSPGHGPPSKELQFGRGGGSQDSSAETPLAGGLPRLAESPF
- protocol_description: cell-based or functional assay
Numbered stars: 1 amine (or outer) side, 2 acyl side, 3 side chain; on linkers, the order of the positions; unused ones are H or OH. Square brackets hold non-standard residues; d marks the D form. Side chains are listed from the residue outwards. Ends that are not written are not given here. * marks the point of attachment. γGlu = O=C(O)[C@H](CCC(=O)[*:2])N[*:1]; Palmitoyl = CCCCCCCCCCCCCCCC(=O)*; Aib = CC(C)(N)C(=O)O

binder	unit_abbrev	EC50 hGlucagon-R
HXQGTFTSDLSKQKDEEAARLFIEWLXAGGPSSGAPPPS (D-Ser at 2; Lys 14 side chain K(AEEAc-AEEAc- E-x53) = (2-{2-[2-(2-{2-[(4S)-4-Carboxy-4-hexadecanoylamino-butyrylamino]-ethoxy}-ethoxy)-acetylamino]-ethoxy}-ethoxy)-acetyl; Aib at 27; C-terminal amide) [SEQ ID NO: 20]	nM	0.0884
H[dS]HGTFTSDLSKQK([γGlu-γGlu-Palmitoyl])DEEAARLFIEWL[Aib]K[dA]GPSSGAPPPS-NH2 [SEQ ID NO: 26]	nM	0.0406
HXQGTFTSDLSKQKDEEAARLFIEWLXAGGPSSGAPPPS (D-Ser at 2; Lys 14 side chain K(AEEAc-AEEAc- E-x70) = (2-{2-[2-(2-{2-[(4S)-4-Carboxy-4-octadecanoylamino-butyrylamino]-ethoxy}-ethoxy)-acetylamino]-ethoxy}-ethoxy)-acetyl; Aib at 27; C-terminal amide) [SEQ ID NO: 21]	nM	0.0091
